Target: Adrenergic receptor alpha-1 (Rattus norvegicus, UniProt P15823+P23944+P43140)
Assay: Binding affinity determined against alpha-1 adrenergic receptor in rat cortex membranes using [3H]prazosin as radioligand
Assay type: cell membranes
// log10(Ki) lookup, one value per entry
Answers are given as log10 of Ki in nM.

Solved entries (count: 2):
> print(dat)
                                   compound  numeric.readout
1  NC(=O)c1ccc2c(c1)CCOC2CCN1CCC(c2c[nH]c3cc(F)ccc23)CC1 (stereo unspecified)             1.08
2  Cn1cc(C2=CCN(CCC3OCCc4cc(C(N)=O)ccc43)CC2)c2ccc(F)cc21 (stereo unspecified)             1.23

Please examine the following record next.
Input line: Identify measured log10(Ki) associated with NC(=O)c1ccc2c(c1)CCOC2CCN1CC=C(c2noc3cc(F)ccc23)CC1 (stereo unspecified)
Output line: 0.48

----------
Biological target: D(2) dopamine receptor (Rattus norvegicus)
Sequence (P61169 whole entry): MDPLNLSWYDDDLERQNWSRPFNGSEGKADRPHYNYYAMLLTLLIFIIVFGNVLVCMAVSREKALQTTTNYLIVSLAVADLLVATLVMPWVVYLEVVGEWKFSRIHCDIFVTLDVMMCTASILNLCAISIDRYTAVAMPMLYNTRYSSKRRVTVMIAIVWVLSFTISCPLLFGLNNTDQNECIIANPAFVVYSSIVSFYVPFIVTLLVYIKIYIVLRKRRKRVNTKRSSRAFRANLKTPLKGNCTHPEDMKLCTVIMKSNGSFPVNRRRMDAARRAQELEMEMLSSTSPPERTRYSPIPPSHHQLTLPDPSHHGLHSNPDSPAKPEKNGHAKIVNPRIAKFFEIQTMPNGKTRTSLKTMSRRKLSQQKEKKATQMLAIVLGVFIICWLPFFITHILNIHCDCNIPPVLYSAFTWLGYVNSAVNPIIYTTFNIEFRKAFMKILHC
Assay: Binding affinity determined against dopamine receptor D2 in rat caudate membranes using [3H]- raclopride as radioligand
QUANTITY MEASURED: pKi
Scale: negative log10 of molar concentration, which is what pKi denotes.

Some compounds with known pKi results, for comparison:
> print(dat)
                                   compound  quantity.measured  numeric.readout
1  NC(=O)c1ccc2c(c1)CCOC2CCN1CC=C(c2cccc3ccc(F)cc23)CC1 (stereo not given)                pKi             7.06
2  NC(=O)c1ccc2c(c1)CCO[C@H]2CCN1CC=C(c2c[nH]c3c(F)cccc23)CC1                pKi             8.15
3  NC(=O)c1ccc2c(c1)CCOC2CCN1CC=C(c2coc3cc(F)ccc23)CC1 (stereo not given)                pKi             7.68
4  NC(=O)c1ccc2c(c1)CCOC2CCN1CCC(c2c[nH]c3cc(F)ccc23)C1 (stereo not given)                pKi             7.55

Now turn to the next compound.
Input line: Return value of pKi for input NC(=O)c1ccc2c(c1)CCOC2CCN1CC=C(c2ccc3cc(F)ccc3c2)CC1 (stereo not given) , no commentary.
Output line: 6.31

----------
Molecular target: 5-hydroxytryptamine receptor 1D (Homo sapiens)
Sequence (P28221 whole entry): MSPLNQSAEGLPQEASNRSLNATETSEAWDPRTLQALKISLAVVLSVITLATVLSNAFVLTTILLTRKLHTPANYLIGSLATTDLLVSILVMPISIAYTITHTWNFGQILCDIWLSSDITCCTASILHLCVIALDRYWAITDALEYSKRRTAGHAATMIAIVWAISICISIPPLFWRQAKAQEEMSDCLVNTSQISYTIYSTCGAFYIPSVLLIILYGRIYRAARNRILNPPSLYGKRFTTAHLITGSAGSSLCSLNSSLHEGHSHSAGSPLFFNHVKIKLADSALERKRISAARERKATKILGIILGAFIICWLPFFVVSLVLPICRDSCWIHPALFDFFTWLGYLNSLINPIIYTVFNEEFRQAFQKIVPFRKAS
Assay: Binding affinity towards human 5-hydroxytryptamine 1D receptor in L-M(tk-) cells using [3H]GR-125743 as radioligand
QUANTITY MEASURED: pKi
Lab note: report pKi as minus log10 of the concentration in molar units, number only.

Previously resolved entries follow.
> print(dat)
                                   compound  numeric.readout
1  NC(=O)c1ccc2c(c1)CCOC2CCN1CC=C(c2ccc(F)c3ccoc23)CC1 (centres undefined)             7.57
2  C[C@H]1CC(c2c[nH]c3cc(F)ccc23)CCN1CCC1OCCc2cc(C(N)=O)ccc21 (some centres undefined)             7.55
3  NC(=O)c1ccc2c(c1)CCOC2CCN1CC=C(c2c[nH]c3cc(C(F)(F)F)ccc23)CC1 (centres undefined)             6.91
4  NC(=O)c1ccc2c(c1)CCOC2CCN1CC=C(c2c[nH]c3c(F)cccc23)CC1 (centres undefined)             7.59
5  NC(=O)c1ccc2c(c1)CCOC2CCN1CC=C(c2noc3cc(F)ccc23)CC1 (centres undefined)             7.20

Input line: Indicate its recorded pKi; the compound in question is COc1ccc2[nH]cc(C3=CCN(CCC4OCCc5cc(C(N)=O)ccc54)CC3)c2c1 (centres undefined)
Output line: 7.51

Input line: Answer with the recorded pKi for the compound listed here: "NC(=O)c1ccc2c(c1)CCO[C@H]2CCN1CC=C(c2c[nH]c3c(F)cccc23)CC1"
Output line: 7.82

Input line: Note pKi for the compound shown: NC(=O)c1ccc2c(c1)CCOC2CCN1CC=C(c2cccc3ccccc23)CC1 (centres undefined)
Output line: 8.27

Input line: Answer with the recorded pKi for the compound listed here: NC(=O)c1ccc2c(c1)CCOC2CCN1CCN(c2c[nH]c3cc(F)ccc23)CC1 (centres undefined)
Output line: 7.13

----------
Molecular target: Adrenergic receptor alpha-1 (Rattus norvegicus, UniProt P15823+P23944+P43140)
Experiment: Binding affinity determined against alpha-1 adrenergic receptor in rat cortex membranes using [3H]prazosin as radioligand
Format: cell membranes
Item-by-item account of Ki
Numbers only here, please. The scale is nM.

The cases that follow already have their Ki on record.
> print(dat)
                                   molecule  numeric.readout
1  Cn1nc(C2=CCN(CCC3OCCc4cc(C(N)=O)ccc43)CC2)c2ccc(F)cc21 (stereo not drawn)               16
2  NC(=O)c1ccc2c(c1)CCOC2CCN1CC=C(c2c[nH]c3cc(C(F)(F)F)ccc23)CC1 (stereo not drawn)              190

Input line: Complete the entry with Ki for NC(=O)c1ccc2c(c1)CCOC2CCN1CC=C(c2[nH]nc3cc(F)ccc23)CC1 (stereo not drawn)
Output line: 2.1

Input line: Please give measured Ki of the following entry: "NC(=O)c1ccc2c(c1)CCO[C@@H]2CCN1CC=C(c2c[nH]c3c(F)cccc23)CC1"
Output line: 1.7

Input line: Indicate its recorded Ki; the molecule in question is N#Cc1cccc2c(C3=CCN(CCC4OCCc5cc(C(N)=O)ccc54)CC3)c[nH]c12 (stereo not drawn)
Output line: 134

Input line: Specify measured Ki for NC(=O)c1ccc2c(c1)CCOC2CCN1CC=C(c2cccc3ccccc23)CC1 (stereo not drawn) .
Output line: 224

Input line: Determine its reported Ki: NC(=O)c1ccc2c(c1)CCOC2CCN1CC=C(c2cccc3ccc(F)cc23)CC1 (stereo not drawn)
Output line: 202

Input line: Quickly give me recorded Ki for NC(=O)c1ccc2c(c1)CCOC2CCN1CC=C(c2coc3cc(F)ccc23)CC1 (stereo not drawn)
Output line: 2.8

Input line: Tell me measured Ki for NC(=O)c1ccc2c(c1)CCOC2CCN1CC=C(c2ccc(F)c3ccoc23)CC1 (stereo not drawn) please.
Output line: 31

Input line: Name the recorded Ki of the molecule listed here: COc1ccc2[nH]cc(C3=CCN(CCC4OCCc5cc(C(N)=O)ccc54)CC3)c2c1 (stereo not drawn)
Output line: 75

Input line: In one line, give reported Ki of the entry NC(=O)c1ccc2c(c1)CCOC2CCN1CC=C(c2c[nH]c3c(F)c(F)ccc23)CC1 (stereo not drawn) .
Output line: 16

Input line: Quick one: give measured Ki for "NC(=O)c1ccc2c(c1)CCO[C@H]2CCN1CC=C(c2c[nH]c3c(F)cccc23)CC1"
Output line: 2.8

Input line: Given NC(=O)c1ccc2c(c1)CCOC2CCN1CC=C(c2ccc3cc(F)ccc3c2)CC1 (stereo not drawn) , respond with its Ki.
Output line: 36
